Can you tell me TGI for the items I'm about to list?
Tested on: SK-MEL-2 melanoma
procedure_summary: NCI tumour cell line growth inhibition, 48 h

Cc1cc(-c2nc3cccc(F)c3s2)ccc1N    > 100 µM
CCN(CC)CCN(C(=O)c1ccc(F)cc1)c1ccccc1N    > 10 µM
C=CCn1c(-c2ccc(-c3cs/c(=N\N=O)n3CC=C)cc2)cs/c1=N\N=O    > 100 µM
COc1ccc(-c2nn(-c3cccc(NC(=O)c4ccc(N5CCOCC5)c(C(F)(F)F)c4)c3)cc2-c2ccncc2)cc1Cl    > 50 µM
N#Cc1sc2c(c1O)c(=O)n(-c1ccccc1)c(=S)n2-c1ccccc1    > 100 µM
Cc1ccc(NC(=O)C(=O)Cc2cc[n+]([O-])cc2)cc1    > 100 µM
O=C1OC(OCC#CCOC2OC(=O)C(Cl)=C2Cl)C(Cl)=C1Cl (stereo unspecified)    32.2 µM
O=C(NNC(=O)c1ccccc1O)c1ccc(O)cc1    94.7 µM
N#CC1=C(Cl)NC(Cl)=C(C#N)C1c1c(Cl)cccc1Cl    > 100 µM
O=C1c2nc3n(c2C(=O)c2c1nc1n2CCC1)CCC3    13.5 µM

Lab note: next compound to report on.
Exam item: Entry under review: `CN(C)CCN1C(=O)c2cccc3cccc(c23)C1=O` . Reported TGI?
Marked response: > 25 µM

----------
System: OVCAR-8 ovarian
procedure_summary: NCI tumour cell line growth inhibition, 48 h
experimental_readout: TGI

Some entries whose results are on file:
Cc1cc(-c2nc3cccc(F)c3s2)ccc1N    > 100 µM
O=C(Nc1ccc(Cl)c(Cl)c1)OCCN1c2ccccc2Sc2ccccc21    > 10 µM
COc1cc2c3c(n(CCCN=[N+]=[N-])c(=O)c2cc1OC)-c1ccc(N(C)C)cc1C3=O    > 100 µM

Look at each compound and report its TGI.
1. O=C1c2ccccc2C(=O)c2oc(Br)cc21
2. COC(=O)c1ccc(NCc2cc(O)ccc2O)cc1
3. O=C(NNC(=O)c1ccccc1O)c1ccc(O)cc1

Marked response:
2.92 µM
40.1 µM
> 100 µM

Look at each compound and report its TGI.
1. CCCCNC(=S)/N=C/c1c(O)c2ccccc2[nH]c1=O
2. O=S(=O)(C/C(=N\O)c1ccccc1)c1ccccc1
3. COCCOC(=O)C(C)=[N+]=[N-]
4. c1ccc(CNc2nc(Nc3ccccc3)nc3ccccc23)cc1
5. COc1cc2oc(=O)ccc2cc1CC=C(C)C
6. CC1(C)O[C@@H](CBr)C[C@H](C[C@H]2C[C@@H](O)C[C@@H](CCOCc3ccccc3)O2)O1
7. O=C1CC(c2ccc(Cl)cc2)Oc2ccccc21 (stereo not drawn)

Marked response:
1. > 10 µM
2. > 100 µM
3. > 100 µM
4. 5.09 µM
5. > 100 µM
6. 47.7 µM
7. > 100 µM

----------
Tested on: NCI-H23 lung
procedure_summary: NCI tumour cell line growth inhibition, 48 h
experimental_readout: TGI

C=C1c2c(Cl)ccc(O)c2C(O)=C2C(=O)[C@]3(O)C(O)=C(C(N)=O)C(=O)[C@@H](N(C)C)[C@@H]3[C@@H](O)[C@H]12    4.14 µM

Look at each molecule and report its TGI.
1. Cn1c2ccccc2c(=O)c2[nH]c3ccccc3c21
2. COc1ccc(-c2nn(-c3cccc(NC(=O)c4ccc(N5CCOCC5)c(C(F)(F)F)c4)c3)cc2-c2ccncc2)cc1Cl
3. COC(=O)C1=C(c2ccc3c(c2)OCO3)OC(c2cc(OC)c(OC)c(OC)c2)C1 (stereo not given)
4. CC(=O)c1cc(C)n2c1CS[C@@H]2c1ccccc1
5. CC1=C(C(=O)OC(C)C)C(c2ccccc2C(F)(F)F)C(C(=O)OC(CO[N+](=O)[O-])CO[N+](=O)[O-])=C(C)N1 (stereo not given)

Marked response:
["> 100 µM", "> 50 µM", "> 100 µM", "> 100 µM", "> 100 µM"]

Look at each molecule and report its TGI.
1. C/C=C(\C)C(=O)N[C@H]1C(O)C[C@]2(C)C3CC[C@@]4(C)C(CC[C@@H]4C(C)N(C)C)C3CCC2C1O (stereo not given in full)
2. O=C(O)CCSC(=O)Nc1ccc(N=Nc2ccccc2)cc1

Marked response:
["49.7 µM", "> 100 µM"]

Look at each molecule and report its TGI.
1. O=C(/C=C1/Nc2ccc([N+](=O)[O-])cc2NC1O)c1cccc([N+](=O)[O-])c1 (stereo not given)
2. S=c1[nH]nc(NNc2ccccc2)n1Nc1ccccc1
3. O=c1[nH]c2c(c(=O)[nH]1)SSC2
4. Cc1cccc2nc3cccc(C(=O)NCCN(C)C)c3nc12
5. CN1CC(=O)N(C)c2nc[nH]c2C1=O
6. CC(C)(C)S(=O)OC12CC3CC(CC(C3)C1)C2 (stereo not given)
7. CC1(C)O[C@@H](CBr)C[C@H](C[C@H]2C[C@@H](O)C[C@@H](CCOCc3ccccc3)O2)O1
8. c1ccc(CC2(c3cc4ccccc4[nH]3)OCCO2)nc1

Marked response:
1: > 100 µM; 2: > 100 µM; 3: 26.9 µM; 4: 3.47 µM; 5: > 100 µM; 6: > 100 µM; 7: 36.7 µM; 8: > 100 µM

Look at each molecule and report its TGI.
1. O=C1C=CC(O)C2C1CC13SSC4(CC5C(=O)C=CC(O)C5N4C1=O)C(=O)N23 (stereo not given)
2. COC(=O)[C@@H](C)C[C@H](Cc1ccccc1)NC(=O)c1csc([C@@H](C[C@H](C(C)C)N(C)C(=O)[C@H](C)NC(=O)[C@H]2CCCCN2C)OC(C)=O)n1
3. CSc1cccc(NC(=O)OC2CCCCCCCCCCC2)c1

Marked response:
0.393 µM
> 25 µM
98 µM

Exam item: Entry under review: `CCCNc1nc2ccccc2c2c1S(=O)(=O)c1ccc(Cl)cc1C2=O` . Reported TGI?
Marked response: > 50 µM
